system: Na+ channels in SCG neurons; assay: Sodium current in superior cervical ganglion neurons (whole-cell voltage clamp); assay type: cell-based, rat
Counter-ions that a name gives are not always drawn.
assayMetric: IC50 (µM)
Field format: number, assumed µM, no unit text.

Please supply the value of reported IC50 for the item CC(C)=CCN[C@@H](CC(C)C)C(=O)NCCCC(c1ccc(F)cc1)c1ccc(F)cc1 [Example 9, monohydrochloride]
8.5

---

target: N-type calcium channels in IMR-32 cells (Homo sapiens); construct: host or cells: IMR-32 cells differentiated with dibutyryl cAMP and bromodeoxyuridine; assay: N-type Ca2+ channel blocking potency in IMR-32 cells using Indo-1; type: cell-based; settings: IMR-32 cells, 5 μM nitrendipine present; read-out: IMR32 IC50
Sequence (Q00975 whole entry): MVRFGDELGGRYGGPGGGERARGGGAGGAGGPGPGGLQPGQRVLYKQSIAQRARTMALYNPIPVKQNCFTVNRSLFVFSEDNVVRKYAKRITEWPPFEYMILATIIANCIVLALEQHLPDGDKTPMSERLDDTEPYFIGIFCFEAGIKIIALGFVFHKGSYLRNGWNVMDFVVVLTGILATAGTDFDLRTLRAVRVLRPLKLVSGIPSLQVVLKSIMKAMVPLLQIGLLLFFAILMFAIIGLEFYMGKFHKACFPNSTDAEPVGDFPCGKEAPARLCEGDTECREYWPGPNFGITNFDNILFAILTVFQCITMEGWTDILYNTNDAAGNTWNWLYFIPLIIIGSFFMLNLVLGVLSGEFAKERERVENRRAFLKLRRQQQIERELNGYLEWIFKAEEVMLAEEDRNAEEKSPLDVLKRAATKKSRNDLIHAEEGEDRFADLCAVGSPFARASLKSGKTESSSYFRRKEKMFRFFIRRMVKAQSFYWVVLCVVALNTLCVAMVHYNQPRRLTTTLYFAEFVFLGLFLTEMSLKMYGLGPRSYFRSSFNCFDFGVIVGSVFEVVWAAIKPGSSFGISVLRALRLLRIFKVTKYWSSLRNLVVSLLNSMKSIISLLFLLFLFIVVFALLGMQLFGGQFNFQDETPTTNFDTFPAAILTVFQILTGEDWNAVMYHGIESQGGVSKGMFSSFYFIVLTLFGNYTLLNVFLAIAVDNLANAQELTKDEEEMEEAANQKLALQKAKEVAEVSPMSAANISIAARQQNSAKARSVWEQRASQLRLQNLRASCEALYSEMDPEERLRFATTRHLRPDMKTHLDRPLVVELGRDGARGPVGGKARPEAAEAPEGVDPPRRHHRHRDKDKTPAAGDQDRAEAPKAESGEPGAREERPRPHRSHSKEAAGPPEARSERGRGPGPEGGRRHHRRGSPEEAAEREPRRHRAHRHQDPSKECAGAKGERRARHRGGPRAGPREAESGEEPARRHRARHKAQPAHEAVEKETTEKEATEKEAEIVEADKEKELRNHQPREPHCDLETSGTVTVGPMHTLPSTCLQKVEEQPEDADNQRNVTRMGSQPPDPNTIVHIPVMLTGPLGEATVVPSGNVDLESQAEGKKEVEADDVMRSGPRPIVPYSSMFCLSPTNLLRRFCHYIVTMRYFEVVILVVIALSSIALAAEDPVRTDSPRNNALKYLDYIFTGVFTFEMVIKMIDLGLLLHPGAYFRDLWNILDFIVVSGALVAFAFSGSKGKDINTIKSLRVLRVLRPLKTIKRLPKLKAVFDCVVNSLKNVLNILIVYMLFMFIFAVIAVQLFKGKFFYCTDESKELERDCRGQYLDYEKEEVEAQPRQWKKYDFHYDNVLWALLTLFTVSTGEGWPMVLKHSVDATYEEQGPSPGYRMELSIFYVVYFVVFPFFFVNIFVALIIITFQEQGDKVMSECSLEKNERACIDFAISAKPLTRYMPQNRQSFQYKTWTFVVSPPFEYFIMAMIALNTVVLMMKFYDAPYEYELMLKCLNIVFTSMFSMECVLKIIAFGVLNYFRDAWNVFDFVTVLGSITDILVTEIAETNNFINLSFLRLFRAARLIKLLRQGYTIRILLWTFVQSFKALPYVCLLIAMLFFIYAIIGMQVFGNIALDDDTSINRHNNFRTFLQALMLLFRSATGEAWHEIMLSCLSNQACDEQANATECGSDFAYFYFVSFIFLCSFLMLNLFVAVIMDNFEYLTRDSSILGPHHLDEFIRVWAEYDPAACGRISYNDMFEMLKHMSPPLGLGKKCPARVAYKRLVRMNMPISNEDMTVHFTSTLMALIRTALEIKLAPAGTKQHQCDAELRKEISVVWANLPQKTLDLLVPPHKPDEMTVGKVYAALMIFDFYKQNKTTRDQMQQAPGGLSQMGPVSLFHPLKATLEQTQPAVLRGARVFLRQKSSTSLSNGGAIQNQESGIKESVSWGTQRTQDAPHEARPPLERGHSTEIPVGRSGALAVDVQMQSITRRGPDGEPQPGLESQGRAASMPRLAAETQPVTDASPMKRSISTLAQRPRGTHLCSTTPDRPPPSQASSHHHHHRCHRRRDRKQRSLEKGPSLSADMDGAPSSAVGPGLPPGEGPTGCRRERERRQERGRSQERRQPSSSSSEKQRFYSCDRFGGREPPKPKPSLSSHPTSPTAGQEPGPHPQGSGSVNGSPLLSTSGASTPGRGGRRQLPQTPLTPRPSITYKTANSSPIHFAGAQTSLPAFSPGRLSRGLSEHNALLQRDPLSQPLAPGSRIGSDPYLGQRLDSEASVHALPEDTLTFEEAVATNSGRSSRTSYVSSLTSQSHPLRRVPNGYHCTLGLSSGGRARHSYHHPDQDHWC
Sequence (P54289 25-956 partner limits assumed): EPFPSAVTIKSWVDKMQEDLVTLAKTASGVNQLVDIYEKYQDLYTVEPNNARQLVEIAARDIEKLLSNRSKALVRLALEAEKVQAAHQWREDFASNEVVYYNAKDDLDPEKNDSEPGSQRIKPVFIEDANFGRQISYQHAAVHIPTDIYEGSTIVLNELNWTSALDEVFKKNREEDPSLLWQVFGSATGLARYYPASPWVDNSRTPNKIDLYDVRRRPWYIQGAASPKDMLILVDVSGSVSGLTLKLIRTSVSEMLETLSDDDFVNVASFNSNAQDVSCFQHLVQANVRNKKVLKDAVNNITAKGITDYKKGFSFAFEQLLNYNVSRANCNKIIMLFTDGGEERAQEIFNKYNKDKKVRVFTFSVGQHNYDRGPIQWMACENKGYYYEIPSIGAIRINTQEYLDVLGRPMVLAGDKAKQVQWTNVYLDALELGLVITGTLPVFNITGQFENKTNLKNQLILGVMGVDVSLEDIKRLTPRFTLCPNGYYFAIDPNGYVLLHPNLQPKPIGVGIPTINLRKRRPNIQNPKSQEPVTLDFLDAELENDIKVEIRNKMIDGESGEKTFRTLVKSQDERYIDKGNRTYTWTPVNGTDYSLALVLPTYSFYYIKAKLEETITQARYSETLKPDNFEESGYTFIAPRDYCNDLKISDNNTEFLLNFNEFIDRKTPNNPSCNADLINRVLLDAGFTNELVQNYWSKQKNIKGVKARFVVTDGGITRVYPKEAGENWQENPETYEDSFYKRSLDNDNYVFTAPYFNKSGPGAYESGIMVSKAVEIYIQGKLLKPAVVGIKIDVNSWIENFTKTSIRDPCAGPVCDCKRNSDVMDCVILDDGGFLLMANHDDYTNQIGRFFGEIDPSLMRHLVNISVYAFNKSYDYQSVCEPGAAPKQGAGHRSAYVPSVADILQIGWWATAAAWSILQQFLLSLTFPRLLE
Sequence (P54289 957-1103 partner limits assumed): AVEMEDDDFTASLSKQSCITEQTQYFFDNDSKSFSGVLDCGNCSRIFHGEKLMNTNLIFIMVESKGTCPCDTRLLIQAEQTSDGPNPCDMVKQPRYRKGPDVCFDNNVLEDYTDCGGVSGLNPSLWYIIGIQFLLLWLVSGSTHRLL
Sequence (Q02641 whole entry partner): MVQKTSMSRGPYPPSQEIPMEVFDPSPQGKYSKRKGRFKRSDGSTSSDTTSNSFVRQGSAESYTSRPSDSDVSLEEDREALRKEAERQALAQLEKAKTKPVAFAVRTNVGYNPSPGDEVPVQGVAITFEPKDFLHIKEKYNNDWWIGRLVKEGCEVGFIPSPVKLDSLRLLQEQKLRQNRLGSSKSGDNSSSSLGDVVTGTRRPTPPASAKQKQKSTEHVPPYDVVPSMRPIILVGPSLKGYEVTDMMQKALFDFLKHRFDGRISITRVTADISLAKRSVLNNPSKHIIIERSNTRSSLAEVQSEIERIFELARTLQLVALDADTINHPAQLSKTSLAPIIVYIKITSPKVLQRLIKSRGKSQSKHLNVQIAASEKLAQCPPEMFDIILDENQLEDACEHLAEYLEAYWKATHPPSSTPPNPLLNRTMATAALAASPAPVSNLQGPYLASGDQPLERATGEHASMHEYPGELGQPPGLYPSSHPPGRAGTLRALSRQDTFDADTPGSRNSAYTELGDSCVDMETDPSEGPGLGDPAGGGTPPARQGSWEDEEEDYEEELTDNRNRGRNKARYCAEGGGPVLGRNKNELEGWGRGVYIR
The reader will find reported pIC50 values listed item by item below.
# pIC50: negative log10 of molar concentration; output just the value

Below, each entry is followed by its recorded pIC50 result.
CC(C)C[C@H](NC(=O)N1CCCCCC1)C(=O)N1CCN(C(c2ccc(F)cc2)c2ccc(F)cc2)CC1; 6.32
CC(C)C[C@H](NC(=O)N1CCCCCC1)C(=O)NCCC(c1ccccc1)c1ccccc1; 5.74
CC(C)C[C@H](NC(=O)N1CCCCCC1)C(=O)NCc1nn(-c2ccccc2)c2ccccc12; 5.40
CC(C)C[C@H](NC(=O)N1CCCCCC1)C(=O)NC(c1ccccc1)c1ccccc1; 5.36
CC(C)C[C@H](NC(=O)N1CCCCCC1)C(=O)NCC(c1ccccc1)c1ccccc1; 5.48

Check the records and state pIC50 for CC(C)C[C@H](NC(=O)N1CCCCCC1)C(=O)NCCCC1(c2ccccc2)C(=O)N(C)c2ccccc21 (stereo partly shown)
5.59

Let me know recorded pIC50 for CC(C)[C@H](NC(=O)N1CCCCCC1)C(=O)N1CCN(C(c2ccc(F)cc2)c2ccc(F)cc2)CC1 , thanks.
6.07

Return pIC50 (reported value) for this compound: CC(C)C[C@@H](C(=O)NCCCC(c1ccc(F)cc1)c1ccc(F)cc1)N(C)Cc1ccc(C(C)(C)C)cc1.Cl [Example 14, monohydrochloride]
6.08

In one line, give reported pIC50 of the entry CC(C)C[C@H](NC(=O)N1CCCCCC1)C(=O)NCCCC(c1ccc(F)cc1)c1ccc(F)cc1 .
6.09

# return recorded pIC50 for entry O=C(CNC(=O)N1CCCCCC1)N1CCN(C(c2ccc(F)cc2)c2ccc(F)cc2)CC1
6.33

---

Parameter: inhibition at 1 µM. Scope: all listed entries.
biological target: N-type Ca2+ channels in cultured superior cervical ganglion (SCG) neurons (Rattus norvegicus); construct: from tissue; test: Calcium current in superior cervical ganglion neurons (whole-cell voltage clamp); assay type: cell-based; conditions: at 1 μM, read-out: SCG Ca, % blockage at 1 μM
Where a name gives a salt, the structure may show the parent alone.
Field format: number, assumed %, no unit text.

Known results for molecules:
CC(C)C[C@H](NC(=O)N1CCCCCC1)C(=O)N1CCN(C(c2ccc(F)cc2)c2ccc(F)cc2)CC1 [Example 31]; 2.5
CC(C)CCN(C)[C@@H](CC(C)C)C(=O)NCCCC(c1ccc(F)cc1)c1ccc(F)cc1 [Example 28, monohydrochloride]; 55
CC(C)=CCN(C)[C@@H](CC(C)C)C(=O)NCCCC(c1ccc(F)cc1)c1ccc(F)cc1 [Example 13, monohydrochloride]; 23
CC(C)C[C@@H](C(=O)N1CCN(C(c2ccc(F)cc2)c2ccc(F)cc2)CC1)N(C)C [Example 39, dihydrochloride]; 15
CC(C)C[C@H](N)C(=O)NCCCC(c1ccc(F)cc1)c1ccc(F)cc1 [Example 7, monohydrochloride]; 45
CC(C)C[C@H](NC(=O)N1CCCCCC1)C(=O)NCCCC(c1ccc(F)cc1)c1ccc(F)cc1 [Example 1]; 17

Give the reported inhibition at 1 µM for this molecule. CC(C)[C@H](NC(=O)N1CCCCCC1)C(=O)N1CCN(C(c2ccc(F)cc2)c2ccc(F)cc2)CC1 [Example 33]
18

Identify the reported inhibition at 1 µM for the following entry. CN[C@@H](CC(C)C)C(=O)NCCCC(c1ccc(F)cc1)c1ccc(F)cc1 [Example 12, monohydrochloride]
3

# return recorded inhibition at 1 µM for input CC(C)C[C@@H](CN1CCN(C(c2ccc(F)cc2)c2ccc(F)cc2)CC1)NC(=O)N1CCCCCC1 [Example 36]
18

Origin of values: patent US6458781B1
